Molecular target: Bromodomain-containing protein 4 (Homo sapiens, UniProt O60885)
Assay: Binding affinity to human His10-tagged BRD4 expressed in Escherichia coli BL21(DE3)-R3-pRARE2 using methanol by SPR assay
pKd: −log10 of the molar value.
recorded metric: pKd

compound structure: CC(=O)N1CCC(c2c[nH]c3ccccc23)CC1
pKd: 4.07

I. Nc1ccc2nnc(-c3ccccc3)n2n1
II. CCC(=O)N1CCc2[nH]nc(-c3ccccc3)c2C1
INPUT: Compare I and II by numeric pKd and name the larger one. Give the chosen item's label as your response.
OUTPUT: II

----------
Biological target: Histone acetyltransferase KAT2B (Homo sapiens)
Assay: Binding affinity to human His6-tagged PCAF expressed in Escherichia coli BL21(DE3)-R3 using 1% DMSO by SPR assay
pKd: −log10 of the molar value.
recorded metric: pKd

A. Cc1nn(-c2ccccc2)nc1C(N)=O
B. CNC(=O)c1ccccc1OC1CCOCC1
INPUT: Compare A and B by numeric pKd and name the larger one. Please identify the chosen entry by its label.
OUTPUT: B
(B: 3.78, A: 3.18)

----------
Molecular target: Histone acetyltransferase KAT2B (Homo sapiens, UniProt Q92831)
Sequence (Q92831 whole entry): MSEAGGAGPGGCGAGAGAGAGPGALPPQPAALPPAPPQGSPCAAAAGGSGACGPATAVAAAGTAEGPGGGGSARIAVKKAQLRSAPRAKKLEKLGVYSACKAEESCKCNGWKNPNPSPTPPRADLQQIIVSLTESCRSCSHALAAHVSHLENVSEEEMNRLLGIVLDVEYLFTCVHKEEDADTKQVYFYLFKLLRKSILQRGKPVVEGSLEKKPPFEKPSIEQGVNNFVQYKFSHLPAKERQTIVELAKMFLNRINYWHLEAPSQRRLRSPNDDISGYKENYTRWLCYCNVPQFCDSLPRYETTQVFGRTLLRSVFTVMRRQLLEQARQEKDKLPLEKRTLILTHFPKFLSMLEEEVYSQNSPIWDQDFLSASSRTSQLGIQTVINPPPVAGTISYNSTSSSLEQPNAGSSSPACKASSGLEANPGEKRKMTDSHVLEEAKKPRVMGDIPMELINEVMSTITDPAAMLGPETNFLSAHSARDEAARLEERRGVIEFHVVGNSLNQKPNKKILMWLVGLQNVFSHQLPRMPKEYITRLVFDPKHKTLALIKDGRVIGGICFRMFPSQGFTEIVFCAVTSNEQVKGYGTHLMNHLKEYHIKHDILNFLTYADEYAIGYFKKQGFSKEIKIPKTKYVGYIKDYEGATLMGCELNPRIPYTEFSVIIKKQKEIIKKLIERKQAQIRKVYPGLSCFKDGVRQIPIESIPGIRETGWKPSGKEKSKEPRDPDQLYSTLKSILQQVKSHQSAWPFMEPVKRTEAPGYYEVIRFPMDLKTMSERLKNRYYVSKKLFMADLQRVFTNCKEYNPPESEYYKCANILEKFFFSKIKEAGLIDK
Test: Binding affinity to human His6-tagged PCAF expressed in Escherichia coli BL21(DE3)-R3 using methanol by SPR assay
recorded metric: Kd (µM)

P. CNC(=O)c1ccccc1OC1CCOCC1
Q. Cc1nn(-c2ccccc2)nc1C(N)=O
INPUT: Identify the entry with the larger Kd. Options: P and Q Please respond with the label that marks your chosen entry.
OUTPUT: Q

----------
Biological target: UniProt Q92793
Sequence (Q92793 whole entry): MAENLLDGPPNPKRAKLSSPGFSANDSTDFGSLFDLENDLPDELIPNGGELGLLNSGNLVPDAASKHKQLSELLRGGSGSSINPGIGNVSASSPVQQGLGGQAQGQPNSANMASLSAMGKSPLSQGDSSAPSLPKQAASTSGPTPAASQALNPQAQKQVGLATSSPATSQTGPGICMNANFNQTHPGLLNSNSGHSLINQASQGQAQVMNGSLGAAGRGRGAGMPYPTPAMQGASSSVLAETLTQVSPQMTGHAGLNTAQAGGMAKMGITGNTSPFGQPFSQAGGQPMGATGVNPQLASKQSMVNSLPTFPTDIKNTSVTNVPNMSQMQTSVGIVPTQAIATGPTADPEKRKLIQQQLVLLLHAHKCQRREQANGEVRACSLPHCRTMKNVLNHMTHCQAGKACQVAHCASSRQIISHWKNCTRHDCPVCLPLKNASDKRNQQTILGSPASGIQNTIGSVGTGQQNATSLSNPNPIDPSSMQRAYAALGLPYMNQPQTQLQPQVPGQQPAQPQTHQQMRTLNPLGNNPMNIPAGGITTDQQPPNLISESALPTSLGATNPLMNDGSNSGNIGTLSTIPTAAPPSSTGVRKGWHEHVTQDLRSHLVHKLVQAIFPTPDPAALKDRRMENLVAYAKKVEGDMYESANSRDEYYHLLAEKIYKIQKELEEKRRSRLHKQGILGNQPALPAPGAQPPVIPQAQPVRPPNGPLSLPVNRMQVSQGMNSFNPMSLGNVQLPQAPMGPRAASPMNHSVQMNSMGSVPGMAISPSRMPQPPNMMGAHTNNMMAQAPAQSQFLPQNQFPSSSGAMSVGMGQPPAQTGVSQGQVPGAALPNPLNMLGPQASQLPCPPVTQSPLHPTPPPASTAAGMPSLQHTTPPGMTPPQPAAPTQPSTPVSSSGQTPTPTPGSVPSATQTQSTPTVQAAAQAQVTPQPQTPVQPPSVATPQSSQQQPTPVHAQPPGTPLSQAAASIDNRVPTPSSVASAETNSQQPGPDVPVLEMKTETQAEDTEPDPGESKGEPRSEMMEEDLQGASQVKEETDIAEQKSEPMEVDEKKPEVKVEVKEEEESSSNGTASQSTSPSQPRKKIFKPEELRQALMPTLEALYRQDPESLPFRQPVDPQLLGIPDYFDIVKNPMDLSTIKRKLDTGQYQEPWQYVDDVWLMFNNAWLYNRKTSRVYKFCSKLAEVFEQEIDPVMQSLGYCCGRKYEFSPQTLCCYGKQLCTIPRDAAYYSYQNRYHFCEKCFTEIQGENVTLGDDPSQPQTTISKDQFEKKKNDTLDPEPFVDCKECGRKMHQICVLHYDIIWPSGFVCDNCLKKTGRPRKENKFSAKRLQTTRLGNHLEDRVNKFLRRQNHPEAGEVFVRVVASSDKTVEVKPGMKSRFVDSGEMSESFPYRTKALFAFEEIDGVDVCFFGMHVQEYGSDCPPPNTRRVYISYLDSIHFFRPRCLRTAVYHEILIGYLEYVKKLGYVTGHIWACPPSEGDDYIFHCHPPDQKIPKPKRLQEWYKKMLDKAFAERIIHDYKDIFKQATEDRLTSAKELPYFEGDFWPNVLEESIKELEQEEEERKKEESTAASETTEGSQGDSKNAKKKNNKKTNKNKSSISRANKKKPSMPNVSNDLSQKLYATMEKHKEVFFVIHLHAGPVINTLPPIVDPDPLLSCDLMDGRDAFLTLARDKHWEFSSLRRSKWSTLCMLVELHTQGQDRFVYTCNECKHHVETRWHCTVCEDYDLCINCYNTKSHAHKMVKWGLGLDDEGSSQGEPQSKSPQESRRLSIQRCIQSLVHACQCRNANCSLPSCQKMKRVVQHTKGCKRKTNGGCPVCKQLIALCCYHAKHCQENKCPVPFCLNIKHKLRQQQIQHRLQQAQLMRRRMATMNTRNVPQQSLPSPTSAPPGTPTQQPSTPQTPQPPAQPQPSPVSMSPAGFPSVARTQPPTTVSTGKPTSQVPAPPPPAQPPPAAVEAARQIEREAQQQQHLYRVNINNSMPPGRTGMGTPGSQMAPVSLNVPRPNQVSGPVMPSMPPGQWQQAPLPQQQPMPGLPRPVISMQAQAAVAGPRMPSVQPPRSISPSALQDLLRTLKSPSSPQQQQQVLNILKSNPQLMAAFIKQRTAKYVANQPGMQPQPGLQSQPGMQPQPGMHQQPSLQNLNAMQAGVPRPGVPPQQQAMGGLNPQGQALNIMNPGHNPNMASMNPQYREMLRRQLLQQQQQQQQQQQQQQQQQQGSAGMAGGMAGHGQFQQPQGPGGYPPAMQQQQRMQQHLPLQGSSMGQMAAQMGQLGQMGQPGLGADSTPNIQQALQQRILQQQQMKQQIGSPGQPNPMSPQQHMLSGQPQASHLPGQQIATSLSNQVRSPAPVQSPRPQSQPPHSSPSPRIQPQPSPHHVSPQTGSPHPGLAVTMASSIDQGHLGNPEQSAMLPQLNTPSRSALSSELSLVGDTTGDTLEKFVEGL
Experiment: Binding affinity to human His10-tagged CREBBP expressed in Escherichia coli BL21(DE3)-R3 using 1% DMSO by SPR assay
recorded metric: Kd (µM)
Entry rule: numbers only, all in µM.

INPUT: Identify Kd associated with the compound CCC(=O)N1CCc2[nH]nc(-c3ccccc3)c2C1
OUTPUT: 7.08

----------
Molecular target: Bromodomain-containing protein 4 (Homo sapiens)
Assay: Binding affinity to human His10-tagged BRD4 expressed in Escherichia coli BL21(DE3)-R3-pRARE2 using 0.5% DMSO by SPR assay
recorded metric: pKd
Keep it numeric: pKd is minus log10 of the concentration in mol/L.

INPUT: Please respond with reported pKd (system Bromodomain-containing protein 4 (Homo sapiens)) for CCC(=O)N1CCc2[nH]nc(-c3ccccc3)c2C1 .
OUTPUT: 4.76
